Data origin: ChEMBL document CHEMBL4513216

As shown below, each of these compounds has a reported cytotoxicity at 10 µM value.
- procedure_details: Toxicity liver stage against HepG2, at 10uM
- Assay type: cell-based
- Set-up: test concentration 10 uM, cell line HepG2-A16-CD81EGFP
- setup_conditions: human, HepG2-A16-CD81EGFP cells; read-out: INHIBITION
The response must be a number in % with no trailing unit.

Below, 5 compounds whose answers are already recorded.
- compound: "Cc1nnc2n1CCN(C(=O)C(C)Oc1ccc(C#N)cc1)C2 (configuration not stated)"
  endpoint_unit: "%"
  quantitative_readout: -0.643
- compound: "CC(C(=O)NC(C)(C)C)N1CCC(C(=O)Nc2cnccn2)CC1 (configuration not stated)"
  endpoint_unit: "%"
  quantitative_readout: -1.36
- compound: "CCOCc1nc(-c2cccc(OC)c2OC)n(C2CCN(C)CC2)n1"
  endpoint_unit: "%"
  quantitative_readout: -1.76
- compound: "Cc1noc(C)c1CCC(=O)N1CCN(CCn2cncn2)CC1"
  endpoint_unit: "%"
  quantitative_readout: 5.03
- compound: "CCOc1ccccc1-n1c(C2CC(=O)N(C)C2)n[nH]c1=O (configuration not stated)"
  endpoint_unit: "%"
  quantitative_readout: 2.48

What does the data say about its cytotoxicity at 10 µM? Entry: CCc1nc(C)sc1CN1CC[C@](C)(O)[C@H](C)C1
-2.11

I'd like to know its cytotoxicity at 10 µM. The compound in question is O=C(c1ccc(C2CCCN2C(=O)c2ccoc2)s1)N1CCOCC1 (configuration not stated)
-156
